Target: human Prostaglandin F2α receptor (hFP) (Homo sapiens)
Sequence (P43088 whole entry): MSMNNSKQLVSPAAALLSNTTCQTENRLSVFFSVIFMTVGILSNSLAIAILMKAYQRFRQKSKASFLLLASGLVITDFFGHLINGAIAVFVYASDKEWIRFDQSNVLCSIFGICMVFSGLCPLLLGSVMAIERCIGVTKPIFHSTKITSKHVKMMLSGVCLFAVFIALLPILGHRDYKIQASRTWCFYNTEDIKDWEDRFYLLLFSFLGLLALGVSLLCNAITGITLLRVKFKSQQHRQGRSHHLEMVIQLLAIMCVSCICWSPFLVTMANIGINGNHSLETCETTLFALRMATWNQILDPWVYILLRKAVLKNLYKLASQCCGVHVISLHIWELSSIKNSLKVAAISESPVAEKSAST
Experiment: In vitro functional assay 1: inhibition of Prostaglandin F2α induced IP3 synthesis in HEK/EBNA cells
Conditions: tested on human Prostaglandin F2α; 30 nM PGF2α stimulation; read-out: EC50 value, antagonism of Prostaglandin F2α-induced IP3-synthesis
Recorded metric: pEC50
Scale: negative log10 of molar concentration, which is what pEC50 denotes.

**Q:** What does the data say about its pEC50? Entry: C=CCNC(=O)[C@@H]1CN(S(=O)(=O)c2ccc(C(C)(C)C)cc2)CCN1S(=O)(=O)c1cccc2cccnc12 [Example 8]
**A:** 7.62
